The origin of these recorded values is the supplement of paper PMC10567573.

B1: HDAC6 (parent)
chain: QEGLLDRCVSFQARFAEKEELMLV

variants of: B1; test: protein stability index of a GFP-peptide fusion (GPS, HEK-293T) (PSI 1-6); higher = more stable; details: c terminus: a fixed tail appended;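 note: lentivirally expressed fusions sorted by FACS into six bins by GFP to DsRed ratio, PSI derived from sequencing read proportions per bin multiplied by bin number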
readout: protein stability index
Answer with the value's number alone.

For record F15E the listed protein stability index is 2.91

For record M22I the listed protein stability index is 1.92

For record C8N the listed protein stability index is 1.9

For record V9E the listed protein stability index is 2.35

For record F11S the listed protein stability index is 2.53

For record R14N the listed protein stability index is 2.41

For record K18E the listed protein stability index is 2.38

For record F11I the listed protein stability index is 2

For record V9T the listed protein stability index is 2.07

For record M22G the listed protein stability index is 3.27

For record M22Y the listed protein stability index is 2.03

For record C8M the listed protein stability index is 1.98

For record M22P the listed protein stability index is 3.99

For record L23N the listed protein stability index is 3.82

For record V24N the listed protein stability index is 3.42

For record L23P the listed protein stability index is 3.45

For record L4D the listed protein stability index is 1.75

For record F15A the listed protein stability index is 2.33

For record R7M the listed protein stability index is 1.92

For record S10D the listed protein stability index is 2.19

For record E17I the listed protein stability index is 1.58

For record E2D the listed protein stability index is 1.83
